- test system: T1, human LPAM-1-Fc (alpha4-Fc/beta7-Fc heterodimer) (human)
- T1 construct: Soluble heterodimer from CHO cells, Protein A purified
- T1 sequence (chain, as listed by the source limits assumed, chain 1 of 2): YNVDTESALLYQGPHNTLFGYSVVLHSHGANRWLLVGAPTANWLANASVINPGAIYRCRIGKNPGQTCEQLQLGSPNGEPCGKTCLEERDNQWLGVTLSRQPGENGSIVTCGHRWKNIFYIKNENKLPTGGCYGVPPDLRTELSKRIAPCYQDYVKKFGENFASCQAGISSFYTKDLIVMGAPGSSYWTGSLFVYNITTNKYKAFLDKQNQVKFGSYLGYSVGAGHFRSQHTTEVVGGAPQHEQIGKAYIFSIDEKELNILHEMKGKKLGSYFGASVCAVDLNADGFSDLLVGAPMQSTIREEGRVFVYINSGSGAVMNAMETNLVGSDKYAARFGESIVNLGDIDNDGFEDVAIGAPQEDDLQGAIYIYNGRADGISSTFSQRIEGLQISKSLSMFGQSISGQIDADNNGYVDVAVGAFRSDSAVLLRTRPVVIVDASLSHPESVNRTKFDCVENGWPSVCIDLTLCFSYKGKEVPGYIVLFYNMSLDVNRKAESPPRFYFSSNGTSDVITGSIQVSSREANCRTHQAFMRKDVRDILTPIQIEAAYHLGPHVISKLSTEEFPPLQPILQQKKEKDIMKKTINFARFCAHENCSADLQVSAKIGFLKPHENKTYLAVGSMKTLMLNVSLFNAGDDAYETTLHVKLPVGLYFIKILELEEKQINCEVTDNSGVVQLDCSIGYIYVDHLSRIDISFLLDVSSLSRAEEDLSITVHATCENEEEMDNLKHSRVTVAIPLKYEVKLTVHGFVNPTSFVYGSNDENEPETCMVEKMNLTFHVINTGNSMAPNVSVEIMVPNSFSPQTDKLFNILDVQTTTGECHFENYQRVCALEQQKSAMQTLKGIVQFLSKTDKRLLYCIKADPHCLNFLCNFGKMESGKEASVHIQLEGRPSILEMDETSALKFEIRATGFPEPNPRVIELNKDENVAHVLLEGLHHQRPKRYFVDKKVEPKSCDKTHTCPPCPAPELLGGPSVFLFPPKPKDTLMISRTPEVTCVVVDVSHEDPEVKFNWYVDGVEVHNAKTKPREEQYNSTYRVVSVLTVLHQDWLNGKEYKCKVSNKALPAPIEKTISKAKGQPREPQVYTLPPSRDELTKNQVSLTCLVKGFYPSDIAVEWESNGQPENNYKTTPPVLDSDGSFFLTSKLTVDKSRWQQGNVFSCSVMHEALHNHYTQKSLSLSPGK
- T1 sequence (chain, as listed by the source limits assumed, chain 2 of 2): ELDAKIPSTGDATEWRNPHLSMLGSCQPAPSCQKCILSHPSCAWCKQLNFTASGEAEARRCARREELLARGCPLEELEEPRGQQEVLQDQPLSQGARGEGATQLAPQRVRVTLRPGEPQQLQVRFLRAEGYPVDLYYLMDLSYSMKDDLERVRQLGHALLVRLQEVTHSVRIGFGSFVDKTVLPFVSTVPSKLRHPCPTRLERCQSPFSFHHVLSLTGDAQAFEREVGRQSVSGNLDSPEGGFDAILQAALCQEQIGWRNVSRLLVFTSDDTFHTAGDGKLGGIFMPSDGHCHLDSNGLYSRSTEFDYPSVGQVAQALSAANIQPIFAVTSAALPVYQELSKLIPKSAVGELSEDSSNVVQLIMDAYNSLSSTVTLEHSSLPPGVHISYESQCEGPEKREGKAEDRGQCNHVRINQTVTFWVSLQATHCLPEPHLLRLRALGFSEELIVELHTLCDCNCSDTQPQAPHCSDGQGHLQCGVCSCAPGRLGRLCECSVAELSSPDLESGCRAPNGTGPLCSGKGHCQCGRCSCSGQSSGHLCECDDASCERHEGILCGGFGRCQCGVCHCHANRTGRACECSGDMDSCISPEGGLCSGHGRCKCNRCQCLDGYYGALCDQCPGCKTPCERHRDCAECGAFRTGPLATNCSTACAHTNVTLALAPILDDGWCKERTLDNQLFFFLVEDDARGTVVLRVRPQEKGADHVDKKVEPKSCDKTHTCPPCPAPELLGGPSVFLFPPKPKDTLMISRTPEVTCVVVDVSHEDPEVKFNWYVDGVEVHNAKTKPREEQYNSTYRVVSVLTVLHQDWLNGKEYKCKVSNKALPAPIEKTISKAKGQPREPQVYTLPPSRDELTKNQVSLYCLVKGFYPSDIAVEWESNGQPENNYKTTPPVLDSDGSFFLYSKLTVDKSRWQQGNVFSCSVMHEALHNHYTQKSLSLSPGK
- method notes: SPR (BIACORE) as in Example 12, polypeptide purified from E. coli as analyte on captured LPAM-1-Fc; KD drawn as bars (Example 20)

binder	binding result
R1R3 (ligand, also called 146R1R3) 2D-VCAM-1 variant polypeptide: MFKIETTPESRYLAQIGDSVSLTCSTTGCESPFFFWRTLLDSPLNGKVTNEGTTSTLTMNPVSFGNEHSYLCTARCESRSLEKGIQVEIYSFPKDPEIHLSGPLEAGKPITVKCSVADVYPFDRLEIDLLKGDHLMKSQEFLEDADRKSLETKSLEVTFTPVIEDIGKVLVCRAKLHIDEMDSVPTVRQAVKELQVYISP	binds

Attribution: patent US20120135912A1
